Molecular target: SLIT2/ROBO1 (Homo sapiens, UniProt O94813)
Sequence (O94813 31-1529): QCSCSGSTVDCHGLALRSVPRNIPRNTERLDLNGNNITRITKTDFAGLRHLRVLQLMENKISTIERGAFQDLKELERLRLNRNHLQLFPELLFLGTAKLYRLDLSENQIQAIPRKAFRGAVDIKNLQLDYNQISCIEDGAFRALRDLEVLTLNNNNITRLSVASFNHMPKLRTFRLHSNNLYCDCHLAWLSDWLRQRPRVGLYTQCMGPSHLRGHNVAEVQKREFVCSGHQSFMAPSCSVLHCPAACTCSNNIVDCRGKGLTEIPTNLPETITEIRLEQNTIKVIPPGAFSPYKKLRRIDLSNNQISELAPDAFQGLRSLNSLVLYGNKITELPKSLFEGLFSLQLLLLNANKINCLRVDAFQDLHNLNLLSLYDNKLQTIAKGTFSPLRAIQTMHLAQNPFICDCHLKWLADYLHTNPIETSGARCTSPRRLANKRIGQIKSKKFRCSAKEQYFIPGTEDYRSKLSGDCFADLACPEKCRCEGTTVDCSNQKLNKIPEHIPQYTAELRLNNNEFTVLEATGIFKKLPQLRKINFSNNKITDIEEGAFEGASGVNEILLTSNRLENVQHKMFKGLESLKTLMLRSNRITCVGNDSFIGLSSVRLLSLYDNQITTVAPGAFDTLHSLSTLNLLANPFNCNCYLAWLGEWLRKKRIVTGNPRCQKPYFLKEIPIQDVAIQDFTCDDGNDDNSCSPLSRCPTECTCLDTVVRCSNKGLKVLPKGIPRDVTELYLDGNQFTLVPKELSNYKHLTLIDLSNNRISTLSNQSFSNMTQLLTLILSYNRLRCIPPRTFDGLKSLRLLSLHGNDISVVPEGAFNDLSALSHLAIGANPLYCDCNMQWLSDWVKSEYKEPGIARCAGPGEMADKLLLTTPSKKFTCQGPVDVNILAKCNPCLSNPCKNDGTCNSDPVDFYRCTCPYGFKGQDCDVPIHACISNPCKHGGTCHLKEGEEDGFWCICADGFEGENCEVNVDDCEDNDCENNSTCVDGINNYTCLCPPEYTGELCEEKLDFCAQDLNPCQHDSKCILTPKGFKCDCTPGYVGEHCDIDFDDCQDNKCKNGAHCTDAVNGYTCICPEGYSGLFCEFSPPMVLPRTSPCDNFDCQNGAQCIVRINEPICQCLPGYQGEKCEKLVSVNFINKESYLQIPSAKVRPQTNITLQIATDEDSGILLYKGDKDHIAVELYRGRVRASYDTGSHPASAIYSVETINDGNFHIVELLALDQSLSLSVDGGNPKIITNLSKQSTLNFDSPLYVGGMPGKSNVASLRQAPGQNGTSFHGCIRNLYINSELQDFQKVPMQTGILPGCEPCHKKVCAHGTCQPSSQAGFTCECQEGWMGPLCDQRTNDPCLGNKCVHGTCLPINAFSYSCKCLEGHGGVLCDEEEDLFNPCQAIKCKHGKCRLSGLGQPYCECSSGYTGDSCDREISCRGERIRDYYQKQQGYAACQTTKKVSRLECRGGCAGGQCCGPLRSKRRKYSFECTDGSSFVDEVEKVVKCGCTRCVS
Sequence (Q9Y6N7 26-897 partner limits assumed): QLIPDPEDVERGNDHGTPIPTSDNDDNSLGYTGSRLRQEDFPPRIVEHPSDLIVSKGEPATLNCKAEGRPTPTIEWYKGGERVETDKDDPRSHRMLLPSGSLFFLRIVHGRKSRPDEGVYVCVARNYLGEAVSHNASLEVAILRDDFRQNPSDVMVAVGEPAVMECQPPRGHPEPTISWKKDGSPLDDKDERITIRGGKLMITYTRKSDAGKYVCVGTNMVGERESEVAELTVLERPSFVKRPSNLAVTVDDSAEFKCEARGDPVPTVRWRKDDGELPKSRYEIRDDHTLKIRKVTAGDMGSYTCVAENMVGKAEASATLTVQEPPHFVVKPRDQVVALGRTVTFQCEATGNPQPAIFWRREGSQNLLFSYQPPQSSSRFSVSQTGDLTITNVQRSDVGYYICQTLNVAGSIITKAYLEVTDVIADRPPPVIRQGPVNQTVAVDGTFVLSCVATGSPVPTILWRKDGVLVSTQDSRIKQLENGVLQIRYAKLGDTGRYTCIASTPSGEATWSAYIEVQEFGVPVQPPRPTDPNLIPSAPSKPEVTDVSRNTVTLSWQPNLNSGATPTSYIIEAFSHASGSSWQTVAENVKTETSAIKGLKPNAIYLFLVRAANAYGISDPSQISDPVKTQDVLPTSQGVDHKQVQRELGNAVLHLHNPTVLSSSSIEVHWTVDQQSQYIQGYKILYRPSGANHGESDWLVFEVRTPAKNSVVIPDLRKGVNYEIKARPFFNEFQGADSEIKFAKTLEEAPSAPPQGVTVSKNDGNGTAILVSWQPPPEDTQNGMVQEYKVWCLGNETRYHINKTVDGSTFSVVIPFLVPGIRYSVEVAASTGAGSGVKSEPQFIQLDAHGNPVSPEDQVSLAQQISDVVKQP
Assay: TR-FRET SLIT2/ROBO1 interaction inhibition
measured.property: IC50

| test.smiles | target.or.system | experimental.result |
| --- | --- | --- |
| C=C(c1ccc(C(=O)O)cc1)c1cc2c(cc1C)C(C)(C)CCC2(C)C | SLIT2/ROBO1 (Homo sapiens, UniProt O94813) | 22.8 µM |
